# System name: Full-length human BTK (Homo sapiens (Human), UniProt Q06187)
# Sequence (Q06187 whole entry): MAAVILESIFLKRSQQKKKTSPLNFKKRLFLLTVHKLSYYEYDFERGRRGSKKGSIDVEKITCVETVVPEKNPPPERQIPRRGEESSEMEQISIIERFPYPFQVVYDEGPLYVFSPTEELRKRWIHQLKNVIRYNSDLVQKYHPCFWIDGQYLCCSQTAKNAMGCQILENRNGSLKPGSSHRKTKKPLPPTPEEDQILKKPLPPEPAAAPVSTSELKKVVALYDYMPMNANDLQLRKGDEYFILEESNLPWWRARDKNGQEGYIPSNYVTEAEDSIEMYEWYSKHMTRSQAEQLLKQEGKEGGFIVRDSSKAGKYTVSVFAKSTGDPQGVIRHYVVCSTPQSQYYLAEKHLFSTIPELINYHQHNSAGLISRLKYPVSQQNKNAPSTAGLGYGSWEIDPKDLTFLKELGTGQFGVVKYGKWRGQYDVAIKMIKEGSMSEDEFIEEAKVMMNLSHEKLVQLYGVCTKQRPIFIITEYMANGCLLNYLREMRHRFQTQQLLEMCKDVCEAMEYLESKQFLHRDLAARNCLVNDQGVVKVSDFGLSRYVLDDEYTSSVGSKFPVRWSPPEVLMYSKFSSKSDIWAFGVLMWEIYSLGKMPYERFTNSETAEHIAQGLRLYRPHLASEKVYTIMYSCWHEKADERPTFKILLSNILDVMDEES
# Experimental protocol: BTK inhibitory activity, Reaction Biology Corporation kinase assay
# Assay context: read-out: IC50(nM) BTK; (d) ATP concentration 50 μM
Property label: IC50 (nM)

# Compound, Measured number
data = [
    ("COc1cccc(Oc2ccc(-c3nn([C@H]4CCC[C@H](O)C4)c4ncnc(N)c34)cc2)c1F [Example 32]", 2.6),
    ("COc1cccc(Oc2ccc(-c3nn(C4CCC(O)C(O)C4)c4ncnc(N)c34)cc2)c1F (centres unmarked) [Example 28]", 1.7),
]

====

# Test system: TMD8 cells (Human diffuse large B lymphoma cells)
# Experimental protocol: CellTiter-Glo TMD8 inhibitory activity
# Format: cell-based
# Assay context: cultured in vitro

# Smiles notation, IC50 / nM
rows = [
    ("Nc1ncnc2c1c(-c1ccc(Oc3ccccc3)cc1)nn2[C@@H]1CCC[C@@H](O)C1", 20),
    ("COc1cccc(Oc2ccc(-c3nn([C@H]4CC[C@@H](O)CC4)c4ncnc(N)c34)cc2)c1F", 8.6),
    ("C[C@]1(O)CCC[C@@H](n2nc(-c3ccc(Oc4ccccc4)cc3)c3c(N)ncnc32)C1", 208),
    ("Nc1ncnc2c1c(-c1ccc(Oc3c(F)cccc3F)cc1)nn2[C@@H]1CCC[C@@H](O)C1", 183),
]

====

inhibition at 0.005 µM listing for selected compounds.
# System name: Full-length human BTK (C481S) (Homo sapiens (Human), UniProt Q06187, C481S)
# Sequence (Q06187 whole entry C481S): as the sequence (Q06187 whole entry) above, with C481S counted along it
# Experimental protocol: BTK (C481S) inhibitory activity, Reaction Biology Corporation kinase assay
# Assay context: read-out: BTK(C481S) inhibitory rate(%)
Property label: inhibition at 0.005 µM (%)

# Compound, Property label, Measured number
measured = [
    ("C[C@]1(O)CC[C@H](n2nc(-c3ccc(Oc4ccccc4)cc3)c3c(N)ncnc32)CC1", "inhibition at 0.005 µM", 63),
    ("Nc1ncnc2c1c(-c1ccc(Oc3ccccc3)cc1)nn2C1CCC(O)C1 (stereo not drawn)", "inhibition at 0.005 µM", 53),
    ("Nc1ncnc2c1c(-c1ccc(Oc3ccccc3)cc1)nn2C1CCC(O)(C2CC2)CC1 (stereo not drawn)", "inhibition at 0.005 µM", 72),
    ("CC1(O)CCC(n2nc(-c3ccc(Oc4ccccc4)cc3)c3c(N)ncnc32)C1 (stereo not drawn)", "inhibition at 0.005 µM", 63),
    ("Nc1ncnc2c1c(-c1ccc(Oc3ccccc3)cc1)nn2[C@H]1CC[C@@H](O)CC1", "inhibition at 0.005 µM", 66),
    ("C[C@]1(O)CC[C@@H](n2nc(-c3ccc(Oc4ccccc4)cc3)c3c(N)ncnc32)CC1", "inhibition at 0.005 µM", 77),
]

====

# System name: Full-length human BTK (C481S) (Homo sapiens (Human), UniProt Q06187, C481S)
# Experimental protocol: BTK (C481S) inhibitory activity, Reaction Biology Corporation kinase assay
# Assay context: read-out: IC50(nM) BTK(C481S); (d) ATP concentration 50 μM
IC50 listing for selected molecules.
Property label: IC50 (nM)

# Molecule, Property label, Measured number
measured = [
    ("COc1cccc(Oc2ccc(-c3nn(C4CCC(O)C(O)C4)c4ncnc(N)c34)cc2)c1F (centres unmarked) [Example 28]", "IC50", 0.6),
    ("COc1cccc(Oc2ccc(-c3nn([C@H]4CCC[C@H](O)C4)c4ncnc(N)c34)cc2)c1F [Example 32]", "IC50", 0.9),
]

====

IC50 listing for selected compounds.
# System name: UniProt:Q06187
# Experimental protocol: BTK inhibitory activity, Reaction Biology Corporation kinase assay
# Assay context: read-out: IC50(nM) BTK; (a) ATP concentration 30 μM
Property label: IC50 (nM)

# Compound, Property label, Measured number
data = [
    ("COc1cccc(Oc2ccc(-c3nn(C4CCCCC4)c4ncnc(N)c34)cc2)c1F [Example 29, reference compound]", "IC50", 64.1),
    ("Nc1ncnc2c1c(-c1ccc(Oc3cccc(F)c3)cc1)nn2C1CCC(O)C1 (centres unmarked)", "IC50", 26.9),
    ("COc1cccc(Oc2ccc(-c3nn([C@H]4CC[C@H](O)CC4)c4ncnc(N)c34)cc2)c1F", "IC50", 16),
    ("Nc1ncnc2c1c(-c1ccc(Oc3cccc(O)c3F)cc1)nn2[C@@H]1CCC[C@@H](O)C1", "IC50", 19.2),
    ("COc1cccc(Oc2ccc(-c3nn([C@@H]4CCC[C@@H](O)C4)c4ncnc(N)c34)cc2)c1F", "IC50", 24.9),
    ("Nc1ncnc2c1c(-c1ccc(Oc3c(F)cccc3F)cc1)nn2[C@@H]1CCC[C@@H](O)C1", "IC50", 49.1),
    ("Nc1ncnc2c1c(-c1ccc(Oc3ccccc3)cc1F)nn2[C@@H]1CCC[C@@H](O)C1", "IC50", 18.8),
    ("Nc1ncnc2c1c(-c1ccc(Oc3ccccc3F)cc1)nn2[C@@H]1CCC[C@@H](O)C1", "IC50", 24.1),
]

====

# System name: Full-length human BTK
# Experimental protocol: BTK inhibitory activity, Reaction Biology Corporation kinase assay
# Assay context: read-out: IC50 of standard; standard in BTK/BTK (C481S) assay, ATP 10 μM

# Molecule, IC50
measured = [
    ("CN[C@@H]1C[C@H]2O[C@@](C)([C@@H]1OC)n1c3ccccc3c3c4c(c5c6ccccc6n2c5c31)C(=O)NC4 [Starsporin, reference compound]", "3.94 nM"),
]

====

# System name: Full-length human BTK (Homo sapiens (Human))
# Experimental protocol: BTK inhibitory activity, Reaction Biology Corporation kinase assay
# Assay context: read-out: BTK inhibitory rate(%)
inhibition at 0.005 µM below 60% gives false (0); inhibition at 0.005 µM at or above it gives true (1).

# Compound, Discrete label
data = [
    ("C[C@]1(O)CC[C@H](n2nc(-c3ccc(Oc4ccccc4)cc3)c3c(N)ncnc32)CC1", "false (0)"),
    ("Nc1ncnc2c1c(-c1ccc(Oc3ccccc3)cc1)nn2C1CCC(O)C1 (stereo not drawn)", "true (1)"),
    ("Nc1ncnc2c1c(-c1ccc(Oc3cccc(F)c3)cc1)nn2[C@@H]1CCC[C@@H](O)C1", "false (0)"),
    ("Nc1ncnc2c1c(-c1ccc(Oc3ccccc3)cc1)nn2[C@H]1CC[C@@H](O)CC1", "true (1)"),
    ("C[C@]1(O)CC[C@@H](n2nc(-c3ccc(Oc4ccccc4)cc3)c3c(N)ncnc32)CC1", "false (0)"),
    ("Nc1ncnc2c1c(-c1ccc(Oc3ccccc3)cc1)nn2[C@@H]1CCC[C@H](O)C1", "false (0)"),
    ("CC1(O)CCC(n2nc(-c3ccc(Oc4ccccc4)cc3)c3c(N)ncnc32)C1 (stereo not drawn)", "true (1)"),
    ("Nc1ncnc2c1c(-c1ccc(Oc3ccccc3)cc1)nn2C1CCC(O)(C2CC2)CC1 (stereo not drawn)", "true (1)"),
]

====

# System name: Full-length human BTK (Homo sapiens (Human), UniProt Q06187)
# Experimental protocol: BTK inhibitory activity, Reaction Biology Corporation kinase assay
# Assay context: read-out: IC50(nM) BTK; (c) ATP concentration 10 μM

# Smiles notation, IC50
records = [
    ("Nc1ncnc2c1c(-c1ccc(Oc3cccc(F)c3)cc1)nn2[C@@H]1CCC[C@@H](O)C1", "3.8 nM"),
]

====

# System name: Full-length human BTK (Homo sapiens (Human))
# Experimental protocol: BTK inhibitory activity, Reaction Biology Corporation kinase assay
# Assay context: read-out: IC50(nM) BTK; (b) ATP concentration 100 μM

# Molecule, Measure unit, IC50
records = [
    ("Nc1ncnc2c1c(-c1ccc(Oc3ccccc3)cc1)nn2[C@@H]1CCC[C@@H](O)C1 [Example 1]", "nM", 8.1),
    ("COc1cccc(Oc2ccc(-c3nn([C@H]4CC[C@@H](O)CC4)c4ncnc(N)c34)cc2)c1F [Example 20]", "nM", 5),
]

====

# System: TMD8 cells (Human diffuse large B lymphoma cells)
# Experimental protocol: CellTiter-Glo TMD8 inhibitory activity
# Format: cell-based
# Assay context: cultured in vitro

# Compound, IC50, nM
measured = [
    ("COc1cccc(Oc2ccc(-c3nn([C@@H]4CCC[C@@H](O)C4)c4ncnc(N)c34)cc2)c1F [Example 19]", 0.5),
    ("C[C@@]1(O)CCC[C@@H](n2nc(-c3ccc(Oc4ccccc4)cc3)c3c(N)ncnc32)C1 [Example 3B]", 200),
    ("C[C@]1(O)CC[C@H](n2nc(-c3ccc(Oc4ccccc4)cc3)c3c(N)ncnc32)CC1 [Example 9B]", 37),
    ("C[C@]1(O)CC[C@@H](n2nc(-c3ccc(Oc4ccccc4)cc3)c3c(N)ncnc32)CC1 [Example 9A]", 72),
    ("Nc1ncnc2c1c(-c1ccc(Oc3ccccc3)cc1F)nn2[C@@H]1CCC[C@@H](O)C1 [Example 16]", 41),
    ("Nc1ncnc2c1c(-c1ccc(Oc3ccccc3)cc1)nn2C1CCC(O)(C(F)(F)F)C1 (centres unmarked) [Example 7]", 504),
    ("CC1(O)CCC(n2nc(-c3ccc(Oc4ccccc4)cc3)c3c(N)ncnc32)C1 (centres unmarked) [Example 6]", 17),
    ("Nc1ncnc2c1c(-c1ccc(Oc3ccccc3)cc1)nn2C1CCC(O)(C2CC2)CC1 (centres unmarked) [Example 10]", 145),
]
